- Test system: MS2 coat protein
- PROTOCOL TEXT: apparent KD of MS2 coat protein; designed switch direction (-1 OFF switch, 1 ON switch): -1; higher = weaker reporter binding
- CONDITION CONTEXT: Eterna round: R95; input ligand: microRNA oligo, concentration not stated

# CONSTRUCT SEQUENCE, apparent KD of MS2 coat protein / nM
measured = [
    ("UUUAAUUUUUUUUUUUUACAAGCUUUUUGCUCGUCUUAUACAUGAGGAUCACCCAUGUGGGUGGGAGGUAAAUUAUC [JMF 78] (puzzle: Sensor v3, turn-off variant 2)", 26.1),
    ("UUUUAACAUGAGGAUCACCCAUGUGAGGAUAUCGAUAUUUUUAUUAAUAUUAAUAAAACGAGAAGGCACAUUUU [JMF 15] (puzzle: Exclusion 1)", 65.4),
    ("GUGAAACAUGAGGAUCACCCAUGUGAGGAUAUGUUUUAGUACUGGAGACAGUACAUCUAUAGAAGGCACAAUGG [Mat - Mod of JL D75] (puzzle: Exclusion 1)", 54.7),
    ("GUCGAGUGAGGAUAUGGUGAGUAGUGCCUGAGCGCUGCUCACCAGAAGGCACAUGAGGAUCACCCAUGUAUGAC [Mat - Exclusion 4 - Mod of JL - D12] (puzzle: Exclusion 4)", 17.8),
    ("GAAAUGGUAGGAUAUACGAAAAAAAAGGGUAGAAAAAAAACACAUGAGGAUCACCCAUGUAGAAGGACCAAAAG [salish99_ex2_r3_088] (puzzle: Exclusion 2)", 31.9),
    ("GAGAUGUGAGGAUAUCUAGACCGCGAAAGAGCCGCGGUCCGAGAGAAGGCACAUGAGGAUCACCCAUGUGAUGA [Tiesri] (puzzle: Exclusion 4)", 39.4),
    ("GGUGGACAUGAGGAUCACCCAUGUGAGGAUAUCGGCCGGCUAGUGGCGGCUGGCUUCUCGAGAAGGCGCAUAGU [Exclusion 1 V77] (puzzle: Exclusion 1)", 37.3),
    ("GGAUCGAGUGUGAGGAUAUGCAGGUCCUUGGAUCUGCAGAAGGCACAUGAGGAUCACCCAUGUGGAGACGGUCC [Mat - Exclusion 4 - JL Mod - D75] (puzzle: Brourd's mod of Exclusion 4)", 64.2),
    ("AGAGAGUCAGGAUAUCGAAGGGAGAGAAAAGGAGAGAGGUACGAGAAGGGACAUGAGGAUCACCCAUGUAGGUG [JR_Exclusion4)Sub015] (puzzle: Exclusion 4)", 413),
    ("AAUGGCUGAGGAUAUACACUCACGUCUAAAAGGUUCAAAUGACAUGAGGAUCACCCAUGUAGAAGGCAGCCCGA [Regeor] (puzzle: Exclusion 2)", 98.4),
    ("GCCAGAGCAGGAUAUUCAAUAUCUCACAUGAGGAUCACCCAUGUCCAUCGAAAGAUGGAGGGAGAAGGGCUCUGGC [Mat - Exclusion 5 - Eli mod - D92] (puzzle: Exclusion 5)", 45.5),
    ("CUGAGCAGACGGAGAUCCAACAUGAGGAUCACCCAUGUCUCAAAAGCUUUUUGCUUGUCUUAUUCUCCUCUGUUCUC [Bieda] (puzzle: Sensor v3, turn-off variant 1)", 35.5),
    ("UUGAGCAGACGGAGAUCCAACAUGAGGAUCACCCAUGUCUCAUAAGCUUUUUGUUCAUCUUAUUGUACCUUGGUGCU [Mat - Sensor v3 - turn-off var 1 - JL Mod - D23] (puzzle: Sensor v3, turn-off variant 1)", 8.53),
    ("AAGUAUAGAGGAUAUAGUGAGUACUACAUGAGGAUCACCCAUGUUCUUCAAAGCGUAUUUCUAGAAGGCUAAUGAA [EX-5 Malc#14] (puzzle: Exclusion 5)", 43.3),
    ("UAGUAGCAAGGAUAUACAGAGGAGAGGAAAGCAAGAGGAGGACAUGAGGAUCACCCAUGUAGAAGGUGCAGAGA [JR_Exclu2_Sub020] (puzzle: Exclusion 2)", 73.9),
    ("GUUAGUUAAGGAUAUACAGGGAGCUGCGGCGUCUCGCCGCAACAUGAGGAUCACCCAUGUAGAAGGUGGCCAUU [JL ViennaUCT Enbibi mod 3] (puzzle: Exclusion 2)", 471),
    ("UUGGAGAUAGGAUAUACGAGGAGAGUUGAGGGAACGCGAUGACAUGAGGAUCACCCAUGUAGAAGGAUCAGGAG [JR_Exclu2_Sub070] (puzzle: Exclusion 2)", 36),
    ("AGAUGGCGAGGAUAUACAUGAGGAUCACCCAUGUGAAGAAGAAGAGUGAGGAAGAAAAGUAGAAGGCGCUGUCA [Mat - Exclusion 3 - Mod of Salish D30] (puzzle: Exclusion 3)", 45.8),
    ("GAAAAGGUAGGAUAUACGAGAAGAAAGGGUAGAGAAGAAACACAUGAGGAUCACCCAUGUAGAAGGACCAAAAG [salish99_ex2_r3_099] (puzzle: Exclusion 2)", 29.9),
    ("UAGAAACAUGAGGAUCACCCAUGUGAGGAUAUGAAAAAGAAAAGAAAAGAAAGAAGAAUCAGAAGGCACAAAGA [salish99-ex1_r3_083] (puzzle: Exclusion 1)", 25.9),
    ("CAAAACCUAGGAUAUACAUGAGGAUCACCCAUGUCGGGCCUACGCUAAACGCGCCUCAGUAGAAGGAGGGAAAC [Usasoon] (puzzle: Exclusion 3)", 52.6),
]
